Just for reference, patent US6849612B2 is where these values come from.

The substances listed here are annotated with their ELAM-1 expression (% of control).
Test system: ELAM-1
Protocol details: ELISA of ELAM-1 expression in TNF-stimulated HUVEC
Assay type: cell-based, human
Measurement context: 30 nM oligo; HUVEC, TNF-α […] 4 hours
Strand notation (5' to 3'): a small letter for the sugar, then the base; units joined by * are phosphorothioate-linked, units joined directly phosphodiester-linked; [ ] holds rarer units or linkages, { } end groups; capitals alone tell only the bases. d = 2'-deoxy (DNA)
Endpoint label: ELAM-1 expression (% of control)

INSERT INTO measurements (substance, endpoint_label, result) VALUES
  ('ISIS 4729: phosphorothioate, human ELAM-1 3′-UTR 2063-2082, SEQ ID NO 57, GGGCCAGAGACCCGAGGAGA (antisense dG*dG*dG*dC*dC*dA*dG*dA*dG*dA*dC*dC*dC*dG*dA*dG*dG*dA*dG*dA)', 'ELAM-1 expression (% of control)', '49.4 % of control'),
  ('ISIS 4730: phosphorothioate, human ELAM-1 I/E 3′UTR 2006-2025, SEQ ID NO 56, TCCCCAGATGCACCTGTTT (antisense dT*dT*dC*dC*dC*dC*dA*dG*dA*dT*dG*dC*dA*dC*dC*dT*dG*dT*dT*dT)', 'ELAM-1 expression (% of control)', '14.1 % of control'),
  ('ISIS 4719: phosphorothioate, human ELAM-1 3′-UTR 2993-3012, SEQ ID NO 58, ACGTTTGGCCTCATGGAAGT (antisense dA*dC*dG*dT*dT*dT*dG*dG*dC*dC*dT*dC*dA*dT*dG*dG*dA*dA*dG*dT)', 'ELAM-1 expression (% of control)', '36.8 % of control'),
  ('ISIS 4756: phosphorothioate, human ELAM-1 I/E 177-196, SEQ ID NO 54, CCAAAGTGAGAGCTGAGAGA (antisense dC*dC*dA*dA*dA*dG*dT*dG*dA*dG*dA*dG*dC*dT*dG*dA*dG*dA*dG*dA)', 'ELAM-1 expression (% of control)', '53.9 % of control'),
  ('ISIS 2673: P=S, human ELAM-1 3′-UTR 2656-2676, SEQ ID NO 30, GTATGGAAGATTATAATATAT (antisense dG*dT*dA*dT*dG*dG*dA*dA*dG*dA*dT*dT*dA*dT*dA*dA*dT*dA*dT*dA*dT)', 'ELAM-1 expression (% of control)', '58.9 % of control'),
  ('ISIS 2670: P=S, human ELAM-1 3′-UTR 3717-3736, SEQ ID NO 29, ACCACACTGGTATTTCACAC (antisense dA*dC*dC*dA*dC*dA*dC*dT*dG*dG*dT*dA*dT*dT*dT*dC*dA*dC*dA*dC)', 'ELAM-1 expression (% of control)', '72.2 % of control'),
  ('ISIS 4732: phosphorothioate, human ELAM-1 Coding 1936-1955, SEQ ID NO 55, CTGATTCAAGGCTTTGGCAG (antisense dC*dT*dG*dA*dT*dT*dC*dA*dA*dG*dG*dC*dT*dT*dT*dG*dG*dC*dA*dG)', 'ELAM-1 expression (% of control)', '68.5 % of control'),
  ('ISIS 2683: P=S, human ELAM-1 AUG 143-163, SEQ ID NO 35, AATCATGACTTCAAGAGTTCT (antisense dA*dA*dT*dC*dA*dT*dG*dA*dC*dT*dT*dC*dA*dA*dG*dA*dG*dT*dT*dC*dT)', 'ELAM-1 expression (% of control)', '47.9 % of control'),
  ('ISIS 2679: P=S, human ELAM-1 5′-UTR 40-59, SEQ ID NO 33, CTGCTGCCTCTGTCTCAGGT (antisense dC*dT*dG*dC*dT*dG*dC*dC*dT*dC*dT*dG*dT*dC*dT*dC*dA*dG*dG*dT)', 'ELAM-1 expression (% of control)', '6.4 % of control');
